Provide the recorded kon for the entries that follow.
Target: T1, Human BCMA (human, UniProt Q02223 1-54, limits assumed)
T1 construct: also called huBCMA; B-cell maturation antigen
T1 sequence (looked up): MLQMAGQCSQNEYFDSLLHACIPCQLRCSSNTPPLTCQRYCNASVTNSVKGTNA
Test: SPR, IgG immobilised, human BCMA analyte
Enter your answer as a number in M⁻¹ s⁻¹; do not include the unit.

Query block: Entry COMBO_Rd4_0.6nM_C20 (antibody, V domains shown, IgG) VH: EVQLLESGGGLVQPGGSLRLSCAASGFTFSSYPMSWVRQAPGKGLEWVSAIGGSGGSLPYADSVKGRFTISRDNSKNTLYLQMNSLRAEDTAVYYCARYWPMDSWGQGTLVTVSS VL: EIVLTQSPGTLSLSPGERATLSCRASQSVSYLYLAWYQQKPGQAPRLLMYDASIRATGIPDRFSGSGSGTDFTLTISRLEPEDFAVYYCQQYMEWPLTFGQGTKVEIK : reported kon = ?
Result block: 7.65e+06

Query block: Entry C01_Rd4_0.6nM_C16 (antibody, V domains shown, IgG) VH: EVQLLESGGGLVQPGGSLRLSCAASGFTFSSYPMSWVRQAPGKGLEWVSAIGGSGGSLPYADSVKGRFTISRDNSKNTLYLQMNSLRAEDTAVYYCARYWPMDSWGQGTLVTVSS VL: EIVLTQSPGTLSLSPGERATLSCRASQSVSSTYLAWYQQKPGQAPRLLIYDASSRAPGIPDRFSGSGSGTDFTLTISRLEPEDFAVYYCQQYSSWPLTFGQGTKVEIK : reported kon = ?
Result block: 1.55e+07

Query block: Entry A02_Rd4_6nM_C05 (antibody, V domains shown, IgG) VH: EVQLLESGGGLVQPGGSLRLSCAASGFTFSSYAMNWVRQAPGKGLEWVSAIFASGGSTYYADSVKGRFTISRDNSKNTLYLQMNSLRAEDTAVYYCARYWPMTPWGQGTLVTVSS VL: EIVLTQSPGTLSLSPGERATLSCRASQSVSSSYLAWYQQKPGQAPRLLMYDASIRATGIPDRFSGSGSGTDFTLTISRLEPEDFAVYYCQQYQRWPLTFGQGTKVEIK : reported kon = ?
Result block: 3.1e+06

Query block: Entry COMBO_Rd4_0.6nM_C29 (antibody, V domains shown, IgG) VH: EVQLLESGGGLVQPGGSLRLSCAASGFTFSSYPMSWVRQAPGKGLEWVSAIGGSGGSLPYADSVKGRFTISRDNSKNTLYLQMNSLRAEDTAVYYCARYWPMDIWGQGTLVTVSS VL: EIVLTQSPGTLSLSPGERATLSCRASQSVSSSYLAWYQQKPGQAPRLLMYDASIRATGIPDRFSGSGSGTDFTLTISRLEPEDFAVYYCQQYQSWPLTFGQGTKVEIK : reported kon = ?
Result block: 1.47e+07

Query block: Entry COMBO_Rd4_6nM_C07 (antibody, V domains shown, IgG) VH: EVQLLESGGGLVQPGGSLRLSCAASGFTFSSYPMSWVRQAPGKGLEWVSAIGGSGGSLPYADSVKGRFTISRDNSKNTLYLQMNSLRAEDTAVYYCARYWPMADWGQGTLVTVSS VL: EIVLTQSPGTLSLSPGERATLSCRASQPISSSYLAWYQQKPGQAPRLLMYDASIRATGIPDRFSGSGSGTDFTLTISRLEPEDFAVYYCQQYQGWPLTFGQGTKVEIK : reported kon = ?
Result block: 1.05e+07

Query block: Entry C01_Rd4_0.6nM_C09 (antibody, V domains shown, IgG) VH: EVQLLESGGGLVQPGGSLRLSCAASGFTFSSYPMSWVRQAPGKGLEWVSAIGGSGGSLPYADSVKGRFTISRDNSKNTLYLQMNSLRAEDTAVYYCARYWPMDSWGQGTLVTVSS VL: EIVLTQSPGTLSLSPGERATLSCRASQSVSSLFLAWYQQKPGQAPRLLIYDASSRAPGIPDRFSGSGSGTDFTLTISRLEPEDFAVYYCQQYSAWPLTFGQGTKVEIK : reported kon = ?
Result block: 1.51e+07

Query block: Entry A02_Rd4_6nM_C25 (antibody, V domains shown, IgG) VH: EVQLLESGGGLVQPGGSLRLSCAASGFTFSSYAMNWVRQAPGKGLEWVSAISDSGGSRWYADSVKGRFTISRDNSKNTLYLQMNSLRAEDTAVYYCARYWPMTPWGQGTLVTVSS VL: EIVLTQSPGTLSLSPGERATLSCRASQSVSSSYLAWYQQKPGQAPRLLMYDASIRATGIPDRFSGSGSGTDFTLTISRLEPEDFAVYYCQQYLDWPLTFGQGTKVEIK : reported kon = ?
Result block: 2.75e+06

Query block: Entry A02_Rd4_6nM_C04 (antibody, V domains shown, IgG) VH: EVQLLESGGGLVQPGGSLRLSCAASGFTFSSYAMNWVRQAPGKGLEWVSAIMSSGGPLYYADSVKGRFTISRDNSKNTLYLQMNSLRAEDTAVYYCARYWPMALWGQGTLVTVSS VL: EIVLTQSPGTLSLSPGERATLSCRASQSVSALYLAWYQQKPGQAPRLLMYDASIRATGIPDRFSGSGSGTDFTLTISRLEPEDFAVYYCQQYQVWPLTFGQGTKVEIK : reported kon = ?
Result block: 4.47e+06

Query block: Entry COMBO_Rd4_6nM_C09 (antibody, V domains shown, IgG) VH: EVQLLESGGGLVQPGGSLRLSCAASGFTFSSYPMSWVRQAPGKGLEWVSAIFASGGSTYYADSVKGRFTISRDNSKNTLYLQMNSLRAEDTAVYYCARYWPMDSWGQGTLVTVSS VL: EIVLTQSPGTLSLSPGERATLSCRASQSVSAQYLAWYQQKPGQAPRLLMYDASIRATGIPDRFSGSGSGTDFTLTISRLEPEDFAVYYCQQYQAWPLTFGQGTKVEIK : reported kon = ?
Result block: 8.85e+06

Query block: Entry A02_Rd4_0.6nM_C26 (antibody, V domains shown, IgG) VH: EVQLLESGGGLVQPGGSLRLSCAASGFTFSSYAMNWVRQAPGKGLEWVSAILMSGGSTYYADSVKGRFTISRDNSKNTLYLQMNSLRAEDTAVYYCARYWPMSLWGQGTLVTVSS VL: EIVLTQSPGTLSLSPGERATLSCGPSQSVSSSYLAWYQQKPGQAPRLLMYDASIRATGIPDRFSGSGSGTDFTLTISRLEPEDFAVYYCQQYQSWPLTFGQGTKVEIK : reported kon = ?
Result block: 7.26e+06
